Collected melting point values appear next to each entry.

Reference set (3 entries):
INSERT INTO assay_data (molecule, assay_readout, recorded_measurement) VALUES
  ('CCc1oc(C(=O)O)cc1C', 'melting point', '133 to 135 °C'),
  ('Fc1ccc(NCc2cccnc2)cc1', 'melting point', '89 to 91 °C'),
  ('Cc1cc(C(=O)NCC(C)C)ccc1N', 'melting point', '91 to 93 °C');

Q: Please look up its melting point: `Cn1c(S)nnc1Cc1cccs1`
Result: 157 to 161 °C

Q: Please look up its melting point: `CCc1cc(Cl)nc(-c2ccc([N+](=O)[O-])cc2)n1`
Result: 103 to 105 °C

Q: Please look up its melting point: `O=C(O)c1sccc1S(=O)(=O)N1CCSCC1`
Result: 144 to 146 °C

Q: Please look up its melting point: O=C(O)C1CCCN(C(=O)Cc2ccccc2)C1 (stereo unspecified)
Result: 112 to 114 °C
